The measured values listed here are drawn from patent US11851406B2.

# Target Or System: human mAChR M1 (Homo sapiens, UniProt P11229)
# Sequence (P11229 1-460): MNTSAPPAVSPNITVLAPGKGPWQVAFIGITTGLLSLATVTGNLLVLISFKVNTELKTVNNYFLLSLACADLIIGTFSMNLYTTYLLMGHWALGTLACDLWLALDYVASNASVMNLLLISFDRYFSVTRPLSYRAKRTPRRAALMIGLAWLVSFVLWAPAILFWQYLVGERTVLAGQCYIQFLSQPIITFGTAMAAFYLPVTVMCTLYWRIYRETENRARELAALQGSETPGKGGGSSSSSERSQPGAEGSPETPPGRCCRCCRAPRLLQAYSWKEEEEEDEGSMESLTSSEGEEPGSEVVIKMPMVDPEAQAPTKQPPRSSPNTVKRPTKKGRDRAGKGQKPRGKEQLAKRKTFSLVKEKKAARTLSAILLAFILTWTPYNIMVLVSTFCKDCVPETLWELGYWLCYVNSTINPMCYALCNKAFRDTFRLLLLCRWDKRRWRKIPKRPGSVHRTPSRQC
# Test Summary: mAChR M1 cell-based functional assay (calcium mobilization), agonist activity upon compound addition alone
# Run Conditions: CHO-K1 cells expressing hM1; calcium mobilization upon compound addition, no acetylcholine
Listed here: items and their measured EC50.

A selection of reference data follows.
Cc1c(Cc2ccc(-n3cccn3)cc2)cc(C(=O)NCC2CCOCC2)nc1-c1ccn(C)n1 : > 10 µM
Cn1ccc(-c2ccc(Cc3cc(C(=O)N[C@H]4CCOC[C@@H]4O)nc(-c4ccn(C)n4)c3)cc2)n1 : > 10 µM
Cc1c(Cc2ccc(-c3ccn(C)n3)cc2)cc(C(=O)N[C@H]2CCC[C@@H]2O)nc1-n1cccn1 : ≥ 10 µM

// query EC50 value for entry "Cc1c(Cc2ccc(-c3ccn(C)n3)cc2)cc(C(=O)N[C@H]2CC[C@@H]2O)nc1-c1ccn(C)n1" > 10 µM

Now consider "Cn1cc(-c2cc(Cc3ccc(-c4ccn(C)n4)cc3)cc(C(=O)N[C@H]3CCOC[C@@H]3O)n2)cn1" and answer again. > 10 µM

Now consider Cc1c(Cc2ccc(-c3ccn(C)n3)cc2)cc(C(=O)NC2CCOCC2(C)C)nc1-c1ccn(C)n1 (stereo not drawn) and answer again. > 10 µM

Now consider "Cc1nc(-c2ccc(Cc3cc(C(=O)N[C@H]4CCOC[C@@H]4O)nc(-n4cccn4)c3)cc2)co1" and answer again. > 10 µM

Now consider Cn1cc(-c2ccc(Cc3cc(C(=O)NC4CCOCC4(C)C)nc(-c4ccn(C)n4)c3)cn2)cn1 (stereo not drawn) and answer again. > 10 µM

Now consider "Cc1c(Cc2ccc(-n3cccn3)cc2)cc(C(=O)N[C@H]2CCOC[C@@H]2O)nc1-c1ccn(C)n1" and answer again. 6.7 µM

Now consider "Cc1c(Cc2ccc(-c3ccn(C)n3)nc2)cc(C(=O)N[C@H]2CCOC[C@@H]2O)nc1-n1cccn1" and answer again. ≥ 10 µM

* * *

Listed here: items and their measured pEC50.
# Target Or System: human mAChR M1 (Homo sapiens)
# Test Summary: mAChR M1 cell-based functional assay (calcium mobilization), agonist activity upon compound addition alone
# Run Conditions: CHO-K1 cells expressing hM1; calcium mobilization upon compound addition, no acetylcholine
# Experimental: Chinese hamster ovary (CHO-K1) cells stably expressing rat (r)M1 were purchased from the American Type Culture Collection and cultured according to their indicated protocol. […] Calcium flux was measured using the Functional Drug Screening System (FDSS) 6000 (Hamamatsu Corporation, Tokyo, Japan) as an increase in the fluorescent static ratio. […] Agonist activity was analyzed as a concentration-dependent increase in calcium mobilization upon compound addition. […]
pEC50: −log10 of the molar value.

A selection of reference data follows.
Cn1cc(-c2ccc(Cc3cc(C(=O)NC4CC5(COC5)C4)nc(-n4cccn4)c3)cn2)cn1 : < 5.00
Cn1cc(-c2ccc(Cc3cc(C(=O)NC[C@@H]4CCCO4)nc(-c4ccn(C)n4)c3)cn2)cn1 : < 5.00

// query pEC50 value for entry "Cn1ccc(-c2ccc(Cc3cc(C(=O)N[C@H]4CCCC[C@@H]4O)nc(-c4ccn(C)n4)c3)cc2)n1" < 5.00

* * *

Listed here: items and their measured Emax.
# Target Or System: human mAChR M1 (Homo sapiens, UniProt P11229)
# Test Summary: mAChR M1 cell-based functional assay (calcium mobilization), agonist activity upon compound addition alone
# Run Conditions: CHO-K1 cells expressing hM1; compound alone; relative to the maximum for acetylcholine

Cc1c(Cc2ccc(-c3ccn(C)n3)cc2)cc(C(=O)N[C@H]2CCCC[C@@H]2O)nc1-n1cccn1 : 26%
Cc1nc(-c2ccc(Cc3cc(C(=O)N[C@H]4CCCC[C@@H]4O)nc(-n4cccn4)c3C)cc2)co1 : 10%
Cn1ccc(-c2ccc(Cc3cc(C(=O)NC4CC5(COC5)C4)nc(-c4ccn(C)n4)c3)cc2)n1 : < 5%
Cn1ccc(-c2ccc(Cc3cc(C(=O)N[C@H]4CCC[C@@H]4O)nc(-n4cccn4)c3)cc2)n1 : < 5%
Cn1cc(-c2ccc(Cc3cc(C(=O)NC4CC5(COC5)C4)nc(-n4cccn4)c3)cn2)cn1 : < 5%

Any idea what Emax came out for "Cc1c(Cc2ccc(-c3ccn(C)n3)cc2)cc(C(=O)N[C@H]2CCOC[C@@H]2O)nc1-c1ccn(C)n1" on human mAChR M1 (Homo sapiens, UniProt P11229)? 18%

Now consider "Cn1ccc(-c2ccc(Cc3cc(C(=O)N[C@H]4CCOC[C@@H]4O)nc(-n4cccn4)c3)cc2)n1" and answer again. 7%

Now consider "Cn1ccc(-c2ccc(Cc3cc(C(=O)NC4CC5(COC5)C4)nc(-n4cccn4)c3)cc2)n1" and answer again. < 5%

Now consider "Cc1c(Cc2ccc(-c3cnn(C)c3)nc2)cc(C(=O)N[C@H]2CCC[C@@H]2O)nc1-n1cccn1" and answer again. 5%

Now consider "Cc1c(Cc2ccc(-n3cccn3)cc2)cc(C(=O)NC2CCOCC2)nc1-c1ccn(C)n1" and answer again. < 5%

Now consider "Cc1c(Cc2ccc(-c3ccn(C)n3)cc2)cc(C(=O)NC2CCOCC2)nc1-n1cccn1" and answer again. < 5%

* * *

# Target Or System: human mAChR M1 (Homo sapiens, UniProt P11229)
# Test Summary: mAChR M1 cell-based functional assay (calcium mobilization), PAM activity: increase in the EC20 acetylcholine response
# Run Conditions: CHO-K1 cells expressing hM1; calcium flux (Fluo-4); potentiation of EC20 acetylcholine response
Result Type: EC50 (µM)

A selection of reference data follows.
Cc1nc(-c2ccc(Cc3cc(C(=O)NC4CC5(COC5)C4)nc(-n4cccn4)c3)cc2)co1 : 6.25
Cc1c(Cc2ccc(-n3cccn3)cc2)cc(C(=O)NC2CC3(COC3)C2)nc1-c1ccn(C)n1 : 6

a: Cn1cc(-c2ccc(Cc3cc(C(=O)N[C@H]4CCCC[C@@H]4O)nc(-n4cccn4)c3)cn2)cn1
b: Cn1ccc(-c2ccc(Cc3cc(C(=O)NC4CC5(COC5)C4)nc(-c4ccn(C)n4)c3)cc2)n1
Given the listed records, identify the one among a and b with higher EC50. Give the label of your selection. b
(b: 3.71 µM, a: 2.25 µM)

* * *

# Target Or System: UniProt:P11229
# Test Summary: mAChR M1 cell-based functional assay (calcium mobilization), PAM activity: increase in the EC20 acetylcholine response
# Run Conditions: CHO-K1 cells expressing hM1; calcium flux (Fluo-4); potentiation of EC20 acetylcholine response
# Description: Chinese hamster ovary (CHO-K1) cells stably expressing rat (r)M1 were purchased from the American Type Culture Collection and cultured according to their indicated protocol. […] Calcium flux was measured using the Functional Drug Screening System (FDSS) 6000 (Hamamatsu Corporation, Tokyo, Japan) as an increase in the fluorescent static ratio. […] Agonist activity was analyzed as a concentration-dependent increase in calcium mobilization upon compound addition. […]
pEC50: −log10 of the molar value.
Result Type: pEC50

Cc1nc(-c2ccc(Cc3cc(C(=O)N[C@H]4CCC[C@@H]4O)nc(-n4cccn4)c3C)cc2)co1 : 5.41

a: Cc1nc(-c2ccc(Cc3cc(C(=O)N[C@H]4CCC[C@@H]4O)nc(-n4cccn4)c3)cc2)co1
b: Cc1c(Cc2ccc(-c3ccn(C)n3)cc2)cc(C(=O)N[C@H]2CCCC[C@@H]2O)nc1-n1cccn1
Look at a and b . Which one has the lower recorded pEC50 number? Give the label of your selection. a

* * *

# Target Or System: human mAChR M1 (Homo sapiens)
# Sequence (P11229 1-460): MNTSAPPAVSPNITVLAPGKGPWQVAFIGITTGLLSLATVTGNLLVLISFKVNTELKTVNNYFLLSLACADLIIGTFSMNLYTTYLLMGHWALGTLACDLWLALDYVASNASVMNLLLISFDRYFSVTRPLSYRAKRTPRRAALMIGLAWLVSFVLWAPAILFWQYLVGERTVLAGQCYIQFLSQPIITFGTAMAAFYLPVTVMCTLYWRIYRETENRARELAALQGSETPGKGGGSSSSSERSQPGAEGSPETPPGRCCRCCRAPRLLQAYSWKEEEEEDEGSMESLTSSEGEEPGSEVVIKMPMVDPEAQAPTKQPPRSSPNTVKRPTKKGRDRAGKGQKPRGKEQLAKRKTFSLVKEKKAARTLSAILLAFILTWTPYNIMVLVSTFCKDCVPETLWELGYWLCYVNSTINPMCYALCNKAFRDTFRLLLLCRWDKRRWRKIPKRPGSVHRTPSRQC
# Test Summary: mAChR M1 cell-based functional assay (calcium mobilization), agonist activity upon compound addition alone
# Run Conditions: CHO-K1 cells expressing hM1; calcium mobilization upon compound addition, no acetylcholine
Listed here: items and their measured EC50.

A selection of reference data follows.
Cc1nc(-c2ccc(Cc3cc(C(=O)N[C@H]4CCOC[C@@H]4O)nc(-n4cccn4)c3C)cc2)co1 : > 10 µM
Cc1ccc(Cc2cc(C(=O)N[C@H]3CCOC[C@@H]3O)nc(-c3ccn(C)n3)c2C)cn1 : > 10 µM
Cc1c(Cc2ccc(-c3ccn(C)n3)cc2)cc(C(=O)N[C@H]2CCOC[C@@H]2O)nc1-c1ccn(C)n1 : 9.81 µM

// query EC50 value for entry "Cc1c(Cc2ccc(-c3ccn(C)n3)nc2)cc(C(=O)NC2CCOCC2)nc1-n1cccn1" > 10 µM

Now consider "Cn1ccc(-c2ccc(Cc3cc(C(=O)NC4CCOCC4)nc(-c4ccn(C)n4)c3)cc2)n1" and answer again. > 10 µM

Now consider "Cc1c(Cc2ccc(-n3cccn3)cc2)cc(C(=O)N[C@H]2CCC[C@@H]2O)nc1-c1ccn(C)n1" and answer again. > 10 µM
